Kindly state IC50 for each of the entries shown.
# targetOrSystem: HLA-A*02:02
# testSummary: IEDB peptide-MHC binding, purified MHC/competitive/radioactivity; bounds were set here for any values at or beyond the usual limits of such assays
# testContext: source organism: Human immunodeficiency virus type 1 (isolate YU2)
Give a bare numeral; the unit nM is implied.

Form: item "KMIGGIGGFI" ; test system HLA-A*02:02; IC50: 54.4

Form: item "LTFGWCFKL" ; test system HLA-A*02:02; IC50: 33.1

Form: item "LLQLTVWGI" ; test system HLA-A*02:02; IC50: 215

Form: item "AIIRILQQL" ; test system HLA-A*02:02; IC50: 22.6

Form: item "VLAEAMSQV" ; test system HLA-A*02:02; IC50: 82.7

Form: item "LTFGWCFKLV" ; test system HLA-A*02:02; IC50: 48.9

Form: item "MASDFNLPPV" ; test system HLA-A*02:02; IC50: 22.6

Form: item "LVGPTPVNI" ; test system HLA-A*02:02; IC50: 154
